Tested on: BT-549 breast
Experiment: NCI-60 one-dose screen, 48 h
Details: 10 µM unless noted
Compounds without any hit were thinned out: in the full panel of roughly 83,000, 20% have a hit. Active and inactive are the calls of the source. The calls were made as follows: active = growth percent below 10; inactive = the rest.
Classes to choose from: Y for active, N for inactive

Example results:
O=C1/C(=C/c2ccc(C(F)(F)F)cc2)COc2ccc(O)c(O)c21 ... N
CCOc1ccc(/C=N\N=C\c2ccc(OCC)cc2)cc1 ... N
COCC[C@H]1CCC/C=C/[C@@H]2C[C@H](O)C[C@H]2[C@H](O)/C=C/C(=O)O1 ... Y
Cc1cc(C(=O)Nc2cc(Nc3ncccc3-c3ncnc4nc[nH]c34)ccc2F)cc(C(F)(F)F)c1 ... N

(Q) Lab log entry: "CCOC(=O)c1c(NC(=O)CSc2n[nH]c3nc4ccccc4n23)sc(CC)c1C" — outcome as called in the assay?
(A) N

* * *

Test system: K-562 leukemia
Assay: NCI-60 one-dose screen, 48 h (100 = growth as untreated, 0 = no growth, -100 = all killed)
Conditions: 10 µM unless noted
Compounds without any hit were thinned out: in the full panel of roughly 83,000, 20% have a hit.
MEASUREMENT LABEL: growth (%)
Numbers only, in %.

Completed entries (count: 8):
O=C1/C(=C/c2ccc(C(F)(F)F)cc2)COc2ccc(O)c(O)c21 ... 3.76
Cc1[nH]c(/C=C/C(=O)c2ccc(C(F)(F)F)c(F)c2)c(C)c1C(=O)NCC(C)C ... 101
O=C1CCC(C(=O)NN(c2ccccc2)c2ccccc2)N1 (centres undefined) ... 12.2
CCN(CC)c1ccc(/C=N\NC(=O)c2cccc(Nc3ccnc(C(F)(F)F)c3)c2)c(O)c1 ... 92.3
C/C(C=O)=C\c1ccc2c(c1)OCO2 ... 113
COc1cccc(C(=O)OCC(O)C(=O)NC23CC4CC(CC(C4)C2)C3)c1 (centres undefined) ... 99.1
CN1CCN(Cc2ccc(NC(=O)c3cncc(C#Cc4cncc5ncccc45)c3)cc2C(F)(F)F)CC1 ... -8.35
O=C(N=Nc1c(O)[nH]c2ccccc12)Nc1ccc(Cl)cc1 ... 81.5

(Q) Request body: readout growth, system K-562 leukemia, query "C=C(CN1CC=CCC1)[C@@H]1CC[C@]2(CO)CC[C@]3(C)[C@H](CC[C@@H]4[C@@]5(C)CC[C@H](O)C(C)(C)[C@@H]5CC[C@]43C)[C@@H]12" . Return the value.
(A) 77

* * *

Tested on: NCI-H23 lung
Assay: NCI-60 one-dose screen, 48 h (100 = growth as untreated, 0 = no growth, -100 = all killed)
Settings: 10 µM unless noted
Compounds without any hit were thinned out: in the full panel of roughly 83,000, 20% have a hit.
Hi there, I'd appreciate the recorded growth for every entry that follows.
Answers are plain numbers, in %.

C=C1C(=O)O[C@H]2[C@H]1CC/C(COC(=O)/C=C\C(=O)NCc1ccc(Cn3c(=O)sn(-c4ccccc4)c3=O)cc1)=C\CC[C@@]1(C)O[C@@H]21 ... 92.1

Please give growth, item by item, for the list that follows.
1. CCCCN1C(=O)/C(=c2\sc3n(c2=O)NC2C(N=3)N(CC)C(=O)N2CC)c2ccccc21 (centres undefined)
2. Cc1cc2nc3c4ccccc4n(CCN(C)C)c3nc2cc1C
3. O=C1c2cccnc2C(=O)c2c1c(C(=O)OCCCN1CCCCC1)c1ccccn21

(A)
1. 46.9
2. 8.98
3. -48.5

* * *

Hi there, I'd appreciate the recorded growth for every entry that follows.
Tested on: NCI/ADR-RES ovarian
Experiment: NCI-60 one-dose screen, 48 h (100 = growth as untreated, 0 = no growth, -100 = all killed)
Details: 10 µM unless noted
Compounds without any hit were thinned out: in the full panel of roughly 83,000, 20% have a hit. Active and inactive are the calls of the source. The calls were made as follows: active = growth percent below 10; inactive = the rest.

Completed entries (count: 3):
COc1cc(C2=NN(C(C)=O)C(c3ccc(N(C)C)cc3)C2)cc(OC)c1OC (centres undefined) ... 99.2% (inactive)
CC[C@]12C=CCN3CC[C@@]4(c5ccc(OC)cc5N(C)[C@H]4[C@@](O)(C(=O)OC)[C@@H]1OC(=O)CCCN1CCOCC1)[C@@H]32 ... 106% (inactive)
COc1ccc(C2=NN(C(=O)c3cc(OC)c(OC)c(OC)c3)C(c3ccc(N(C)C)cc3)C2)cc1 (centres undefined) ... -5.85% (active)

(Q) What measured growth goes with "NC(=O)c1c(NC(=O)c2ccc(Cl)cc2)sc2c1CCC(=O)C2" ?
(A) 87.8% (inactive)

* * *

Tested on: LOX IMVI melanoma
Assay: NCI-60 one-dose screen, 48 h (100 = growth as untreated, 0 = no growth, -100 = all killed)
Conditions: 10 µM unless noted
This is part of a sample that, as a whole, favours compounds with a hit. Of some 83,000 tested, about 20% had one in any assay.
MEASUREMENT LABEL: growth (%)
Answers are plain numbers, in %.

Please give growth, item by item, for the list that follows.
1. CCCC(O)Cn1ncc(C(=O)OCC)c1NC(=O)NCc1cccc(F)c1 (stereo not given)
2. COc1ccc(C2=C/C(=C\c3ccc(Cl)cc3)C(=O)N2/N=C/c2ccc(Cl)cc2)cc1
3. O=C(NCc1ccccc1O)c1cccc2ccccc12
4. CCCCCCCCCCCCCCCCCCOc1ccccc1CC(=O)NCC[N+]1(C)CCOCC1
5. COc1cc2c(c(OC)c1OC)C(=O)CC(c1cccc(NC(=O)c3ccccc3Br)c1)O2 (stereo not given)
6. CCN(CC)CCOc1ccc(Nc2ncc3cc(-c4ccc(O)cc4)c(=O)n(C)c3n2)cc1

(A)
1. 92.7
2. 99.1
3. 79.6
4. 55.5
5. 93.4
6. -11.7

* * *

System: T-47D breast
Assay: NCI-60 one-dose screen, 48 h
Details: 10 µM unless noted
This is part of a sample that, as a whole, favours compounds with a hit. Of some 83,000 tested, about 20% had one in any assay. The source made the active and inactive calls. Rule for the calls: active = growth percent below 10; inactive = the rest.
Classes to choose from: class 1 = active, class 0 = inactive

Example results:
CC1(C)C2CC=C(/C=N/NC(=O)C3CCC(=O)N3)C1C2 (stereo unspecified) ... class 0
O=S(=O)(c1ccccc1)N1CCCN(c2nc(-c3ccccc3)nc3nc(-c4ccccc4)oc23)CC1 ... class 0
C/C(=C(\c1ccc(OCCN2CCCCCC2)cc1)c1ccc(OC(=O)Cc2ccccc2)cc1)c1ccc(Cl)cc1 ... class 0
COc1cc2oc(-c3cccc(NC(=O)c4ccc5c(c4)OCO5)c3)cc(=O)c2c(OC)c1OC ... class 0
O=C1/C(=C/c2ccc(C(F)(F)F)cc2)COc2ccc(O)cc21 ... class 0
COc1ccc2c(c1)c(-c1nonc1-c1c[nH]c3ccc(Br)cc13)cn2C ... class 0
N#CC(C#N)N=Nc1ccc(Cl)cc1Cl ... class 0
COc1ccc(C(c2cc(OC)c(OC)c(OC)c2)N2CCN(Cc3ccccc3)CC2)cc1 (stereo unspecified) ... class 0

(Q) Lab log entry: "CCOC(=O)c1c(NC(=O)CSc2n[nH]c3nc4ccccc4n23)sc(CC)c1C" — outcome as called in the assay?
(A) class 0

(Q) Request: O=C1OCC2=C1C(c1cccc(F)c1)c1cc3c(cc1N2CCO)OCO3 (stereo unspecified)
(A) class 0

(Q) Request: COc1cc(N2C(=O)[C@H](c3ccccc3)C2c2ccc(SC)cc2)cc(OC)c1OC (stereo partly specified)
(A) class 0

(Q) Request: "COC(=O)c1ccc2c(c1)c1c(C)c3ccncc3c(C)c1n2C"
(A) class 0

(Q) Request: "CC1(C)OC(=O)C(=Cc2cccc(Br)c2)C(=O)O1"
(A) class 0

(Q) Request: "CCc1ccc(CCC(=O)Nc2ncc(Cc3ccc(Cl)cc3)s2)o1"
(A) class 0

* * *

Hi there, I'd appreciate the recorded growth for every entry that follows.
Test system: HCC-2998 colon
Assay: NCI-60 one-dose screen, 48 h (100 = growth as untreated, 0 = no growth, -100 = all killed)
Details: 10 µM unless noted
Compounds without any hit were thinned out: in the full panel of roughly 83,000, 20% have a hit.
Answers are plain numbers, in %.

CNC(=O)c1c(NC(=O)c2ccc(C(C)(C)C)cc2)sc2c(CN(C)C)c(O)ccc12 ... -83.6

Please give growth, item by item, for the list that follows.
1. O=C1NC(=Nc2ccc(O)cc2)S/C1=C\c1cccs1
2. C#CC#CC#CC#CC#CC#CC#CC#CC[C@H]1OC[C@@H](COC(=O)O[C@@H](C(=O)O[C@H]2C[C@@]3(O)[C@@H](OC(=O)c4ccccc4)[C@@H]4[C@]5(OC(C)=O)CO[C@@H]5C[C@H](O)[C@@]4(C)C(=O)[C@H](OC(C)=O)C(=C2C)C3(C)C)[C@@H](NC(=O)c2ccccc2)c2ccccc2)O1

(A)
1. 59
2. 48.3

* * *

Tested on: MCF7 breast
Experiment: NCI-60 one-dose screen, 48 h (100 = growth as untreated, 0 = no growth, -100 = all killed)
Details: 10 µM unless noted
This is part of a sample that, as a whole, favours compounds with a hit. Of some 83,000 tested, about 20% had one in any assay. The source made the active and inactive calls. The calls were made as follows: active = growth percent below 10; inactive = the rest.
Hi there, I'd appreciate the recorded growth for every entry that follows.

Completed entries (count: 3):
COC1=CC(c2ccc[nH]2)=N/C1=C\c1[nH]c(C)c(CC(=O)OCc2ccccc2)c1C ... 4.14% (active)
Nc1ncnc2c1c(-c1ccc(Oc3ccccc3)cc1)nn2CC1SSCC1O (stereo not given) ... 16% (inactive)
CSCCC(NC(=O)c1ccccc1)C(=O)N/N=C1\S/C(=C/c2ccc(Cl)cc2)C(=O)N1C (stereo not given) ... 83.9% (inactive)

Please give growth, item by item, for the list that follows.
1. Cc1cccc(-n2c(C)nc3ccc(N4CCCNC4=O)cc3c2=O)c1
2. CN1CCN(CCOc2ccc(-c3cnc4c(-c5ccc(C(F)(F)F)cc5)cnn4c3)cc2)CC1
3. OC(c1ccccc1)(c1ccccc1)c1ccccc1-c1ccccc1
4. C=CCn1c(SCC(=O)Nc2ccc(C(=O)/C=C/c3cc(OC)c(OC)c(OC)c3)cc2)nnc1-c1cc(-c2ccc(OC)cc2)nc2ccccc12
5. COc1cc(C(=O)/C=C/c2c(-c3cccs3)nc3ccccn23)cc(OC)c1OC

(A)
1. 97.8% (inactive)
2. 10.3% (inactive)
3. 83.5% (inactive)
4. 64.4% (inactive)
5. 7.96% (active)

Please give growth, item by item, for the list that follows.
1. CCN(CC)CCCNCc1cc(-c2ccccc2)nc2cc(Cl)ccc12
2. O=C(N/N=C/c1ccc(Cl)cc1Cl)c1ccc2nc(-c3ccc(Cl)cc3)[nH]c2c1
3. O=C(/C=C\c1ccco1)/C=C/c1ccco1
4. CCn1c2ccc(O)cc2c2c(C)c3c[n+](C(C)C)ccc3c(C)c21
5. CC/C=C\C/C=C/C=C1/C(=O)C=C[C@@H]1C/C=C\CCCC(=O)OC

(A)
1. 23% (inactive)
2. -20% (active)
3. 101% (inactive)
4. 17.8% (inactive)
5. 18.6% (inactive)

Please give growth, item by item, for the list that follows.
1. COc1cc(N2C(=O)[C@H](c3ccccc3)C2c2ccc(SC)cc2)cc(OC)c1OC (stereo not given in full)
2. CN(C)c1ccc(/C=C/C(=O)c2ccccc2)cc1

(A)
["6.93% (active)", "44.7% (inactive)"]
